- testedOn: iSP-D (Homo sapiens, UniProt P35247, D344N/D350N/E309K/INS346GSS/K307Q/V271E)
- Construct: Full-length recombinant iSP-D was generated based upon the full-length hSP-D cDNA clone
- Sequence (P35247 with tags, fused parts or gaps V271E/K307Q/E309K/D344N/INS346GSS/D350N): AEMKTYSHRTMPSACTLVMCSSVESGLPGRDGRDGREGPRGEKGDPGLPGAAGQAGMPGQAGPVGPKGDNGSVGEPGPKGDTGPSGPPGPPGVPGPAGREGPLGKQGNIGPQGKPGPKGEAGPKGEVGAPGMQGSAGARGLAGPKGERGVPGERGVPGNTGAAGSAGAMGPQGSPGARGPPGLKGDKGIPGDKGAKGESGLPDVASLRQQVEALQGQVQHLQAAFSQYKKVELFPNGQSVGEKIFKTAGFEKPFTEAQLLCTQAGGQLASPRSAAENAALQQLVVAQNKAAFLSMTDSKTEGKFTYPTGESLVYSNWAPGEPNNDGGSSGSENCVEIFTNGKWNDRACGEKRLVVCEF
- assayInfo: Saccharide competition of SP-D binding to BSA-mannan coated plates
measureName: IC50 (mM)
Number only, in mM; omit the unit.

Record excerpt, results attached:
# molecule, testedOn, IC50 [mM]
rows = [
    ("O=C(CO)[C@@H](O)[C@H](O)[C@H](O)CO", "iSP-D (Homo sapiens, UniProt P35247, D344N/D350N/E309K/INS346GSS/K307Q/V271E)", 4.8),
    ("O=C[C@H](O)[C@@H](O)[C@@H](O)[C@H](O)CO", "iSP-D (Homo sapiens, UniProt P35247, D344N/D350N/E309K/INS346GSS/K307Q/V271E)", 13.6),
]

Consider the molecule shown here: CC(=O)N[C@@H]1C(O)O[C@H](CO)[C@@H](O)[C@@H]1O (stereo partly shown) What is its recorded IC50?
3.1

Consider next the molecule OC[C@H]1OC(O)[C@H](O)[C@@H](O)[C@@H]1O (stereo partly shown) in the same way.
7.8

Origin of values: paper PMC6842947
